Entries annotated with measured pIC50
Tested on: NUGC3 cells (p53 Y220C)
run.description: Cell Proliferation Assay (CellTiter-Glo), NUGC3 p53 Y220C
Format: cell-based
condition.info: Homo sapiens, NUGC-3, 120 h, 5 days, read-out: CTG NUGC3 P53 Y220C IC50
pIC50: −log10 of the molar value.

| cpd.smiles | pIC50 |
| --- | --- |
| C[C@H](NC(=O)C1CC1)c1nc(-c2cc3c(N[C@@H]4CCN(C)C[C@@H]4F)cccn3c2SC(F)(F)F)no1 | ≤ 5.52 |
| CN1CC[C@@H](Nc2cccn3c(SC(F)(F)F)c(-c4noc(CNC(=O)[C@H]5COCCO5)n4)cc23)[C@@H](F)C1 | 5.82 to 6.12 |
| CN1CC[C@@H](Nc2cccn3c(SC(F)(F)F)c(-c4noc(CNC(=O)c5ccc6c(c5)NC(=O)C6)n4)cc23)[C@@H](F)C1 | > 6.12 |
| CN1CC[C@@H](Nc2cccn3c(SC(F)(F)F)c(-c4noc(CNC(=O)C5CC(F)(F)C5)n4)cc23)[C@@H](F)C1 | ≤ 5.52 |
| CN1CC[C@@H](Nc2cccn3c(SC(F)(F)F)c(-c4noc(CNC(=O)c5cnn(C)n5)n4)cc23)[C@@H](F)C1 | > 6.12 |

Now for a further molecule.
Would you mind telling me what pIC50 value was observed for CN1CC[C@@H](Nc2cccn3c(SC(F)(F)F)c(-c4noc(CNC(=O)c5cnn(C(C)(C)C)c5)n4)cc23)[C@@H](F)C1 ?
> 6.12

Where these numbers come from: patent US20260347353A1
